- System: CCRIS mutagenicity, Ames/micronucleus/aberration tests
- Assay name: CCRIS mutagenicity studies
- Settings: Test System: AMES SALMONELLA TYPHIMURIUM; Strain/Indicator: TA1535; Metabolic Activation: NONE; Method: PREINCUBATION
The source made the active and inactive calls. No rule for the calls is given here.
Outcomes: active, inactive

Molecule	Target	Class name
c1ccc(OP(Oc2ccccc2)Oc2ccccc2)cc1	CCRIS mutagenicity, Ames/micronucleus/aberration tests	inactive
O=[N+]([O-])c1ccc(Nc2ccc(Nc3ccccc3)c(S(=O)(=O)O)c2)c([N+](=O)[O-])c1	CCRIS mutagenicity, Ames/micronucleus/aberration tests	inactive
Cl[C@@H]1C2(Cl)C3C4[C@@H]5O[C@@H]5[C@H]5C3[C@@](Cl)(C2(Cl)Cl)[C@]1(Cl)[C@@H]45 (some centres undefined)	CCRIS mutagenicity, Ames/micronucleus/aberration tests	inactive
C=CCOC(=O)C=C	CCRIS mutagenicity, Ames/micronucleus/aberration tests	inactive
OCC(CO)(CO)CO	CCRIS mutagenicity, Ames/micronucleus/aberration tests	inactive
CC(C)Nc1ccc(Nc2ccccc2)cc1	CCRIS mutagenicity, Ames/micronucleus/aberration tests	inactive
OB(O)O	CCRIS mutagenicity, Ames/micronucleus/aberration tests	inactive
CCOc1ccc(N=Nc2ccc(-c3ccc(N=Nc4c(O)ccc5cc(S(=O)(=O)O)cc(S(=O)(=O)O)c45)c(C)c3)cc2C)cc1	CCRIS mutagenicity, Ames/micronucleus/aberration tests	inactive
NC(=O)N(CCCC(=O)O)N=O	CCRIS mutagenicity, Ames/micronucleus/aberration tests	active
NS(=O)(=O)c1cc2c(cc1Cl)NC=NS2(=O)=O	CCRIS mutagenicity, Ames/micronucleus/aberration tests	inactive
CC1=CC(=O)c2ccccc2C1=O	CCRIS mutagenicity, Ames/micronucleus/aberration tests	inactive
CCOc1ccccc1N	CCRIS mutagenicity, Ames/micronucleus/aberration tests	inactive
Clc1c(Cl)c(Br)c2c(c1Cl)-c1nc-2nc2[n-]c(nc3nc(nc4[n-]c(n1)c1c(Cl)c(Br)c(Cl)c(Br)c41)-c1c(Cl)c(Cl)c(Br)c(Cl)c1-3)c1c(Br)c(Cl)c(Br)c(Cl)c21.[Cu+2]	CCRIS mutagenicity, Ames/micronucleus/aberration tests	inactive
ClCC(Cl)COCC(Cl)CCl (centres undefined)	CCRIS mutagenicity, Ames/micronucleus/aberration tests	inactive
S=C=Nc1cccc2ccccc12	CCRIS mutagenicity, Ames/micronucleus/aberration tests	inactive
[Cl][V]([Cl])[Cl]	CCRIS mutagenicity, Ames/micronucleus/aberration tests	inactive
CNC(=O)c1cccc(NCC(=O)NCCc2ccc(OC)c(OC)c2)c1	CCRIS mutagenicity, Ames/micronucleus/aberration tests	inactive
C#C[C@]1(O)CC[C@H]2[C@@H]3CCc4cc(O)ccc4[C@H]3CC[C@@]21C	CCRIS mutagenicity, Ames/micronucleus/aberration tests	inactive
ClC1C(Br)C(Br)C(Br)C(Br)C1Br (centres undefined)	CCRIS mutagenicity, Ames/micronucleus/aberration tests	inactive
CC(=O)c1ccncc1	CCRIS mutagenicity, Ames/micronucleus/aberration tests	inactive
c1ccc2c(CC3CO3)cccc2c1 (centres undefined)	CCRIS mutagenicity, Ames/micronucleus/aberration tests	active
c1ccc(CSCc2ccccc2)cc1	CCRIS mutagenicity, Ames/micronucleus/aberration tests	inactive
O=C(O)CO.[NH2-].[NH2-].[Pt+2]	CCRIS mutagenicity, Ames/micronucleus/aberration tests	inactive
Nc1ccc2c(c1)C(=O)/C(=N/Nc1ccc(-c3ccc(N/N=C4/C(=O)c5c(N)cc(S(=O)(=O)O)cc5C=C4S(=O)(=O)O)cc3)cc1)C(S(=O)(=O)O)=C2	CCRIS mutagenicity, Ames/micronucleus/aberration tests	inactive
